experiment: folding stability dG unfold from chymotrypsin proteolysis; higher = more stable
property.label: folding stability dG unfold (kcal/mol)

> print(dat)
                             residue.string               property.label  units.symbol     val
1  SAPDVGPEERARRLIEEARAEVEAARAAGDPSVPRRVVFDELAVAHPEEAARILEEAARLGIPVEVRPPSAG [r14_908_JUSTAS]  folding stability dG unfold      kcal/mol    0.98
2  SAGGVRYRNPLTGVEIPPDATEEERAAIARAVAKPVVLPVTVPVYVEEGDVVVPVERTFHVPLGPDGSAGGS [r16_387_TrMRF]  folding stability dG unfold      kcal/mol  0.0948
3  SAGGSAGGSSLEEIAKKLGLKPGMRVRLSDGKVLEVPSLDDLKAALEAGLSLEELKKIEIEPVSAGGSAGGS [r12_430_TrROS_Hall]  folding stability dG unfold      kcal/mol    1.68
4  SMTVTTDPSSLTFTLPPTYTSVEQAREALEELGFKLPSSVKSITIESVDEGKNLNTITVTFDDPEALKKLSA [r9_820_JUSTAS]  folding stability dG unfold      kcal/mol   0.922
5  SAGGKKKKLVIKDKKTNKYYEIENAKEIVKIEKVKGKDGKTYYVIYFKKTKKKIVIKTKEDLEKALKSAGGS [r8_206_TrROS_Hall]  folding stability dG unfold      kcal/mol    1.18
6  SAGGSAGGSPPPRFRVVVVFEDGTRREFDLTPEELVAFAEVVPDVVVEELPPGEVRITVRLPGSAGGSAGGS [r20_231_TrMRF]  folding stability dG unfold      kcal/mol    3.11
7  SMLKEIPITVPEEGEVVTVNIEELAKEQGLDPNNVTVTVTSSGPGKVYKITISSNGITITEVGNVPTALLSA [r9_819_JUSTAS]  folding stability dG unfold      kcal/mol   0.684

---

assay: folding stability dG unfold (combined trypsin and chymotrypsin); higher = more stable
Entries and their folding stability dG unfold
property.label: folding stability dG unfold (kcal/mol)

> print(dat)
                             residue.string               property.label  units.symbol    val
1  SAGMIEITVEVPAEDMTEEELKELAEELARALREAGLPEDVKIVDVRVERLPDGTVRVTIKIEVKPPPSAGG [r19_87_TrROS_Hall]  folding stability dG unfold      kcal/mol   4.36
2  SAGGSAGGSDILKNLPPGHKRVEIMFIPNMPMEKMKRMAKEIAPILRKRGVDVEIKVIPPDEMSAGGSAGGS [r12_456_TrROS]  folding stability dG unfold      kcal/mol  0.118
3  SAGGSWTIDIDPEKVKEVEHKRNPNGMNEHRLELPNKNGKKREVKIPMGMKSPEDALDEIRELLGKSAGGSA [r2_347_TrROS]  folding stability dG unfold      kcal/mol  0.331
4  SADLAKNIAKKLNPDIKDVQIKDIELQPNPDNGYPVIKVELEVKMNDGPYKKSIWFMPNGFQIKIQPVPSAG [r14_397_TrROS]  folding stability dG unfold      kcal/mol   1.44

---

test: folding stability dG unfold from trypsin proteolysis; higher = more stable
Quick rule: folding stability dG unfold of at least 1 kcal/mol means Yes, below that means No.

> print(dat)
                             residue.string  group.label
1  SAGGSAGGSAGMVIEDPSGVTTVVTFDTSVPVVTTTTLTKDPNSNNYTTTTTTTPVTVPVSAGGSAGGSAGG [r17_491_JUSTAS]          Yes
2  SGPIAELVKAHPGVPVEDLAKAIVDALKAQLPKDVPITVDAEVTPDGIKLNVTVEGDTEPFTFPFVVKPGSA [r9_805_TrMRF]           No
3  SAGGMVLVIVSDLKPGELNEIIEKLKKEGLEVKLFLPNGEEIDADPNIEDLPEDVPVVLLVRHPDKSSAGGS [r16_31_TrMRF]          Yes
4  SAGGRIEVRPLEGSGAVLVRILDPELRKKLEEKFPDVTEILFPVEGAEDIPLEELRDRAIKEIEELIDSAGG [r19_298_TrMRF]          Yes
5  SAGGSKTVELEIEIDGKLIKIRVEENENGELTVRIEIYDKNGKKVKEIEIKVKSLEEALKALEKLLSAGGSA [r2_82_TrROS_Hall]          Yes
6  SAGGSAGGSAGLTKPVEVEVEEDGTVTIKTLSIVPVDDGYELHEETTEIPLSPEEIAALQSAGGSAGGSAGG [r17_415_JUSTAS]           No
7  SAGGSAGGSAGGETIELKLPNGKVLRVEKDKEKGKTYKIYDTKTKKLVKTFKSKEALKKASAGGSAGGSAGG [r7_72_TrROS_Hall]           No
